Listing of recorded Cmax by entry.
Assay: in vivo
Conditions: mouse

- Compound: "Cn1nnc2c(C(N)=O)ncn2c1=O [temozolomide]"
  Cmax: "36000 ng/mL"

Now consider a different compound.
# input compound: CCc1c2c(nc3ccc(OC(=O)N4CCC(N5CCCCC5)CC4)cc13)-c1cc3c(c(=O)n1C2)COC(=O)[C@]3(O)CC [irinotecan] ; wanted: its Cmax
1240 ng/mL

====

Assay: in vivo
Conditions: mouse
Entries and their measured Tmax follow.
Entry rule: numbers only, all in min.

- Compound: "Cn1nnc2c(C(N)=O)ncn2c1=O [temozolomide]"
  Tmax / min: 30

Consider the compound shown here: CCc1c2c(nc3ccc(OC(=O)N4CCC(N5CCCCC5)CC4)cc13)-c1cc3c(c(=O)n1C2)COC(=O)[C@]3(O)CC [irinotecan] What is its recorded Tmax?
30
